This section presents molecules with their documented pIC50 values.
- MEASUREMENT TARGET: Tyk2 kinase activity on STAT4 in NK92 cells (Homo sapiens, UniProt P29597)
- Sequence (P29597 whole entry): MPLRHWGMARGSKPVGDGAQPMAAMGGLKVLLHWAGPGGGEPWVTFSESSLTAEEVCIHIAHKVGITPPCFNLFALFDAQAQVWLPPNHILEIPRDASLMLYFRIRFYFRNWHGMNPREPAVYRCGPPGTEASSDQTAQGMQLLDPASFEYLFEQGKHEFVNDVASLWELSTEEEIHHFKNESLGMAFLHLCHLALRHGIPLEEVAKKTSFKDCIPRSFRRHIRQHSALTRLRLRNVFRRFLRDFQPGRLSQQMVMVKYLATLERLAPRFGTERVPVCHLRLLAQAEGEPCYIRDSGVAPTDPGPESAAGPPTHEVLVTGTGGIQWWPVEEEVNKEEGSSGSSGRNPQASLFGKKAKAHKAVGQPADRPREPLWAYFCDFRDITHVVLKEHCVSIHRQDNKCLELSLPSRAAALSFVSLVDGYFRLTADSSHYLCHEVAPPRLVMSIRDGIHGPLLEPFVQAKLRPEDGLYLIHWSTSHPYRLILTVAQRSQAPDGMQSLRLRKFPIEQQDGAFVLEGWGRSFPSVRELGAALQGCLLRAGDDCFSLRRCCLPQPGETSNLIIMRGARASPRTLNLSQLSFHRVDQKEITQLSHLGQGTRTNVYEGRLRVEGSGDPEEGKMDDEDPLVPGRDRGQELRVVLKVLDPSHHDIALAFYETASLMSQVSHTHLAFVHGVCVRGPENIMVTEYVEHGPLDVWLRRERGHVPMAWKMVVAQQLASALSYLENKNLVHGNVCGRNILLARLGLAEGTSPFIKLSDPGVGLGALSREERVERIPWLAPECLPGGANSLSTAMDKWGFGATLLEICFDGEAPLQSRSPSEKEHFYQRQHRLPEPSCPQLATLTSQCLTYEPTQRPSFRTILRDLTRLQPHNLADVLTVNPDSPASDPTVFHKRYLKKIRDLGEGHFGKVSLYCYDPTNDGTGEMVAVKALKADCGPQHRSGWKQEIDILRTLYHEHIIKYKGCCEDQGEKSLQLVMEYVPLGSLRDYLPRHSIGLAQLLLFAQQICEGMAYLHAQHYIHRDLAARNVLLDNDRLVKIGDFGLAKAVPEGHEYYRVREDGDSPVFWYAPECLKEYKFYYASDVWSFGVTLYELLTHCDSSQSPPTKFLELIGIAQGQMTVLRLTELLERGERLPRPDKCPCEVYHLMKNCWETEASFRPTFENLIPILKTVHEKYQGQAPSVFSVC
- ASSAY PROTOCOL: pSTAT4 cell assay (MSD; NK92 cells, 30 ng/mL IL2 stimulation)
- EXPERIMENTAL CONDITIONS: 30 ng/mL IL2, 15 minutes
pIC50: −log10 of the molar value. Counter-ions that a name gives are not always drawn.

C[C@@H]1CN(c2nc(-c3ccc4nccn4c3)cn3nccc23)C(=O)[C@]1(C#N)C1CC1 [Example 263, trifluoroacetate]; 7.30 to 7.70
C[C@@H]1CN(c2ccnn3cc(-c4cc5n(n4)CCO5)cc23)C(=O)[C@]1(C#N)C1CC1 [Example 110, trifluoroacetate]; < 7.00
Cc1ccc(-c2cn3nccc3c(N3C[C@@H](C)[C@@](C#N)(C4CC4)C3=O)n2)cn1 [Example 233, trifluoroacetate]; < 7.00
CCn1cc(-n2nc(N3C[C@@H](C)[C@@](C#N)(C4CC4)C3=O)c3ccncc32)cn1; < 7.00
Cn1cc(-c2cc3c(N4CC[C@@](C#N)(C5CC5)C4=O)ccnn3c2)c(F)n1; < 7.00
C[C@@H]1CN(c2nc(-c3cnn(C4CC(C#N)C4)c3)cc3ncsc23)C(=O)[C@]1(C#N)C1CC1 (some centres unmarked); 7.30 to 7.70
C[C@@H]1CN(c2ccnn3cc(-c4cnn(C5CC6(C5)CN(C)C6)c4)cc23)C(=O)[C@]1(C#N)C1CC1; 7.00 to 7.30
C[C@@H]1CN(c2cc(-c3cnn(C4COC4)c3)cc3ncsc23)C(=O)[C@]1(C#N)C1CC1; 7.00 to 7.30
C[C@@H]1CN(c2ccnn3cc(-c4cncc(F)c4)cc23)C(=O)[C@]1(C#N)C1CC1; < 7.00
Cc1cc(-c2cc(N3C[C@@H](C)[C@@](C#N)(C4CC4)C3=O)c3ccnn3c2)n[nH]1; < 7.00

Assign pIC50 to the following record: `C[C@@H]1CN(c2ccnn3cc(-c4cnn(-c5cccnc5)c4)cc23)C(=O)[C@]1(C#N)C1CC1`
7.00 to 7.30

###

- MEASUREMENT TARGET: human JAK1 kinase domain (JH1) (Homo sapiens, UniProt P23458)
- Construct: recombinantly generated catalytic kinase (also known as JH1) domain of human JAK1, JAK2, JAK3 and TYK2
- Sequence (P23458 875-1153 limits assumed): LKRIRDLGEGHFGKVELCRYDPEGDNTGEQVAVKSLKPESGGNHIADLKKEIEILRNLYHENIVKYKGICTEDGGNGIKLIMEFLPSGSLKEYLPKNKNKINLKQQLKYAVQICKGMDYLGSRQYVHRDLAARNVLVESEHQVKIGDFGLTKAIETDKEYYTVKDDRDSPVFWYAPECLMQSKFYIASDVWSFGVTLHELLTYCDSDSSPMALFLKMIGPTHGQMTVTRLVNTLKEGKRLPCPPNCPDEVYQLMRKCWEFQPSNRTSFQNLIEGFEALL
- ASSAY PROTOCOL: JH1 biochemical assay for JAK1 (ADP-Glo kinase assay, recombinant JH1 catalytic domain, JAK3-342 peptide, 35 μM ATP)
- EXPERIMENTAL CONDITIONS: JH1 kinase domain, ADP-Glo
pIC50: −log10 of the molar value. Counter-ions that a name gives are not always drawn.
Parameter pIC50: see the listing below.

Sample answers from the record:
C[C@@H]1CN(c2ccnn3cc(-c4cnc5[nH]ncc5c4)cc23)C(=O)[C@]1(C#N)C1CC1; > 7.00
Cn1cc(-c2cc3c(N4CC[C@@](CC#N)(C5CC5)C4=O)ccnn3c2)cn1; 5.30 to 6.00
CC[C@H]1C[C@@](C#N)(C2CC2)C(=O)N1c1ccnn2cc(C3=NC(C)N=C3)cc12 (some centres unmarked); < 5.00
C[C@@H]1CN(c2ccnn3cc(-c4ccc(N(C)C)cn4)cc23)C(=O)[C@]1(C#N)C1CC1 [Example 134, trifluoroacetate]; 6.00 to 7.00

Return pIC50 (reported value) for this compound: Cc1ccc(-c2cc3c(N4C[C@@H](C)[C@@](C#N)(C5CC5)C4=O)ccnn3c2)nn1 [Example 137, trifluoroacetate]
5.30 to 6.00
